B1: OAS1 (parent)
chain: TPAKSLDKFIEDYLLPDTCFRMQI

# Variants of: B1
# run.description: protein stability index of a GFP-peptide fusion (GPS, HEK-293T) (PSI 1-6); higher = more stable;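 further: lentivirally expressed fusions sorted by FACS into six bins by GFP to DsRed ratio, PSI derived from sequencing read proportions per bin multiplied by bin number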
# condition.set: c terminus: a fixed tail appended
Kindly supply the reported protein stability index values for the records listed here.
Answers are plain numbers.

Answered examples (2):
Ask: Look up and state reported protein stability index for TPAKSLDKFIEDYLLPDTYFRMQI [C19Y]
Result: 3.22

Ask: Look up and state reported protein stability index for TPAKHLDKFIEDYLLPDTCFRMQI [S5H]
Result: 1.69

For each of the variants below, state protein stability index.
1. TPAKSLDKFIEDYHLPDTCFRMQI [L14H]
2. TPAKSLDKFIEDYLLPDTCSRMQI [F20S]
3. TPAKSLDKFIEDYLLPDTCRRMQI [F20R]
4. TPAKSLDKFIEDYLLPDTCFRMQC [I24C]
5. TPAKSLDKFIEDYLLPDTCFGMQI [R21G]
6. TPAKSLDKFIQDYLLPDTCFRMQI [E11Q]
7. TPAKALDKFIEDYLLPDTCFRMQI [S5A]

Result:
1: 2.62; 2: 2.28; 3: 2.8; 4: 2.23; 5: 2.33; 6: 2.19; 7: 2.52

For each of the variants below, state protein stability index.
1. TPAKSLDKFIEDYLLPDFCFRMQI [T18F]
2. TPAKSLDKFIEDYLLPDTCFRMQE [I24E]

Result:
[2.45, 1.85]

For each of the variants below, state protein stability index.
1. TPAKSLDKFIEDDLLPDTCFRMQI [Y13D]
2. TPAKSLDKFIEDYLLPGTCFRMQI [D17G]
3. TPAKSLDQFIEDYLLPDTCFRMQI [K8Q]
4. TPAKSLDKFIEDYLLPDTCFPMQI [R21P]
5. TPAKSLDKFIYDYLLPDTCFRMQI [E11Y]
6. TPAKSLDKWIEDYLLPDTCFRMQI [F9W]
7. TPAKSLDKKIEDYLLPDTCFRMQI [F9K]
8. TPASSLDKFIEDYLLPDTCFRMQI [K4S]

Result:
1. 2.36
2. 3.94
3. 1.68
4. 1.31
5. 1.66
6. 3.55
7. 2.13
8. 2.24

For each of the variants below, state protein stability index.
1. TPAKSLDKFIEDYLLTDTCFRMQI [P16T]
2. TPYKSLDKFIEDYLLPDTCFRMQI [A3Y]
3. TPAKYLDKFIEDYLLPDTCFRMQI [S5Y]

Result:
1. 2.68
2. 1.96
3. 2.89
